Reference source: paper PMC9166712

# TESTED SYSTEM: MPO (Homo sapiens, UniProt P05164)
# Sequence (P05164 279-745 limits assumed): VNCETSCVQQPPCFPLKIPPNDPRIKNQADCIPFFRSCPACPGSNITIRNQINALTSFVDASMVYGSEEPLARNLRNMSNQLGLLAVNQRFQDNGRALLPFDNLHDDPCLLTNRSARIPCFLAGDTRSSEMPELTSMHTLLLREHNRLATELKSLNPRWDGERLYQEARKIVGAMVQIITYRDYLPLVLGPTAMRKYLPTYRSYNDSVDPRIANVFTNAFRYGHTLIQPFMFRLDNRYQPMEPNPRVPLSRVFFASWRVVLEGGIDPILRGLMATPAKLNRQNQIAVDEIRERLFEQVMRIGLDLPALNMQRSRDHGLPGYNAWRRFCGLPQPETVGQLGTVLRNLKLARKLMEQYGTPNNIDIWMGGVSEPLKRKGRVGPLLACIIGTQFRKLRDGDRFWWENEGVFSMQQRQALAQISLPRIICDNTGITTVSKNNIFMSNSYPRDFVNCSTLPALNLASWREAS
# Sequence (P05164 165-273 limits assumed): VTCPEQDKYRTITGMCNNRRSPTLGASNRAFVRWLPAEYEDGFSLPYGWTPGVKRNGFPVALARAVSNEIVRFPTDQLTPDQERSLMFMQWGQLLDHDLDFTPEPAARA
# CONDITION SUMMARY: read-out: Azide anion IC50; CBA probe 20 µM, MPO 1.2 nM, H2O2 10 µM, NaCl 0.1 M, pH 7.4
QUANTITY NAME: pIC50
Expect pIC50 as a plain number equal to -log10 of the molar concentration.

## Input Specify pIC50 for [N-]=[N+]=[N-] [Azide anion, sodium azide] , system MPO (Homo sapiens, UniProt P05164).
## Output 6.09

----------
# TESTED SYSTEM: UniProt:P05164
# ASSAY NAME: Z' parameter of the MPO/H2O2/Cl- assays
# Set-up: MPO from human neutrophils was obtained from Athens Research and Technology; purchased Athens Research and Technology (Athens, GA); host or cells: human neutrophils (natural source, donor material)
# CONDITION SUMMARY: both end-point (20 min) and kinetic (initial rates over 5 min) measurements
QUANTITY NAME: Z' value

Nc1ccc(Oc2ccc3c(-c4ccccc4C(=O)O)c4ccc(=O)cc-4oc3c2)cc1
around 0.9
O=C(O)c1ccccc1-c1c2ccc(=O)cc-2oc2cc(B(O)O)ccc12
around 0.9
O=c1ccc2ccc(B(O)O)cc2o1
around 0.9
